# Test system: Clostridium histolyticum collagenase (type IA)
# Measurement notes: Anti-collagenase activity, FALGPA degradation followed by UHPLC
# Assay type: biochemical
# Condition parameters: 25 μM
Endpoint name: inhibition of collagenase IA (Inh %)

COc1cc(/C=C/C(=O)OC2C(O)CC3(C)C(CCC4(C)C3CC=C3C5C(C(=O)O)(CCC(C)C5(C)O)CCC34C)C2(C)C)ccc1O (centres unmarked)    76%
COc1cc(/C=C/C(=O)O)ccc1O    do not have any effect
COc1cc(/C=C/C(=O)OC2C(O)CC3(C)C(CCC4(C)C3CC=C3C5C(C)C(C)CCC5(C(=O)O)CCC34C)C2(C)C)ccc1O (centres unmarked)    36%
C[C@@H]1CC[C@]2(C(=O)O)CC[C@]3(C)C(=CC[C@@H]4[C@@]5(C)C[C@@H](O)[C@H](O)C(C)(C)[C@@H]5CC[C@]43C)[C@@H]2[C@]1(C)O    do not have any effect
